From: patent US12448423

- Tested System: T1, HIS-tagged human NKG2D (human, UniProt P26718 73-216, limits assumed)
- T1 construct: Captured on HIS1K biosensors; not shown: HIS tag
- T1 sequence (looked up): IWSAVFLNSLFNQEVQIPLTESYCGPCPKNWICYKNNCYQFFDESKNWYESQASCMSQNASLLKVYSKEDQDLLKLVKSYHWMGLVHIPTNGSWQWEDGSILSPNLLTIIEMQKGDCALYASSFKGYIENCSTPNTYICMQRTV
- Test Details: Octet (BLI): His-tagged human NKG2D captured on HIS1K biosensors, dipped into 100 nM bivalent mAb
Measured Quantity: koff (s⁻¹)
Just the number please, in s⁻¹, no unit attached.

Some solved entries appear below for comparison.
INSERT INTO results (binder, measured_quantity, experimental_value) VALUES
  ('XENP27598 (antibody, human IgG1, kappa, V domains shown, humanized bivalent anti-NKG2D mAb, IgG1 with ablation variants; also called mAb B[NKG2D]_H1L1_IgG1_PVA_/S267K) VH: QVQLVQSGAEVKKPGASVKVSCKASGYTFTSYWMNWVRQAPGQGLEWMGRIDPYDSETHYNQKFQGRVTMTVDKSTSTAYMELSSLRSEDTAVYYCAKMGDYSFDYWGQGTLVTVSS VL: DIQLTQSPSSLSASVGDRVTITCRASGNIHNYLAWYQQKPGKSPKVLVYNAKTLADGVPSRFSGSGSGTDYTLTISSLQPEDFATYYCQHFWSTTWTFGGGTKVEIKR', 'koff', 0.000746),
  ('XENP27602 (antibody, human IgG1, kappa, V domains shown, humanized bivalent anti-NKG2D mAb, IgG1 with ablation variants; also called mAb B[NKG2D]_H2_L1.1_IgG1_PVA_/S267K) VH: EVQLVQSGAEVKKPGESLRISCKASGYTFTSYWMNWVRQMPGKGLEWMGRIDPYDSETHYNPSFQGHVTISVDKSISTAYLQWSSLKASDTAMYYCAKMGDYSFDYWGQGTLVTVSS VL: DIQLTQSPSSLSASVGDRVTITCRASGNIHNYLAWYQQKPGKSPKVLVYNAKTLADGVPSRFSGSGSGTDYTLTISSLQPEDFATYYCQHFWSTPWTFGGGTKVEIKR', 'koff', 0.00144),
  ('XENP27608 (antibody, human IgG1, kappa, V domains shown, humanized bivalent anti-NKG2D mAb, IgG1 with ablation variants; also called mAb C[NKG2D]_H1L2_IgG1_PVA_/S267K) VH: EVQLVESGGGLVQPGGSLRLSCAVSGFSLTIYGVHWVRQAPGKGLEWVSVIWSGGSTDYNAKVKGRFTISKDNSKRTVYLQMNSLRAEDTAVYYCSRKSHDGYYGVMDYWGQGTTVTVSS VL: DIQLTQSPSSLSASVGDRVTITCRASQSIGTSIHWYQQKPGKSPKLLIKYASESISGIPSRFSGSGSGTDFTLTISSLQPEDFATYYCQQSNTWPLTFGAGTKVEIKR', 'koff', 0.000308);

The record that follows has no koff shown yet.
INPUT: Recorded koff for XENP27601 (antibody, human IgG1, kappa, V domains shown, humanized bivalent anti-NKG2D mAb, IgG1 with ablation variants; also called mAb B[NKG2D]_H2L1_IgG1_PVA_/S267K) VH: EVQLVQSGAEVKKPGESLRISCKASGYTFTSYWMNWVRQMPGKGLEWMGRIDPYDSETHYNPSFQGHVTISVDKSISTAYLQWSSLKASDTAMYYCAKMGDYSFDYWGQGTLVTVSS VL: DIQLTQSPSSLSASVGDRVTITCRASGNIHNYLAWYQQKPGKSPKVLVYNAKTLADGVPSRFSGSGSGTDYTLTISSLQPEDFATYYCQHFWSTTWTFGGGTKVEIKR , please?
OUTPUT: 0.0011
